target: hOGG1 (Homo sapiens, UniProt O15527); experiment: Biochemical fluorescence assay to measure enzymatic activity of hOGG1 (OGG1/APEX IC50); set-up: Protein His-hOGG1 (12-323) was prepared; His (N); host or cells: E. coli; conditions: 1 nM OGG1+2 nM APEX+6 nM dsDNA (8-oxo-dG substrate); pH 7.5; RT 40 min; read-out: OGG1/APEX IC50
Sequence (O15527 12-323): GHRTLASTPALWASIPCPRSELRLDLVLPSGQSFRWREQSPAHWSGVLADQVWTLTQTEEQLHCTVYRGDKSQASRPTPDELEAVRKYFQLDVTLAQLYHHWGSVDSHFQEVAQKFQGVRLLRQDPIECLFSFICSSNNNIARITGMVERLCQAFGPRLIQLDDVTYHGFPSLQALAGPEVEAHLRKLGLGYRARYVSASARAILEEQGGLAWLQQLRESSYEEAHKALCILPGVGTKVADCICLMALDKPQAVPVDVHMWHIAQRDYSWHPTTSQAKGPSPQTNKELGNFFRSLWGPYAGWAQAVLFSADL
observation type: IC50

Tell me IC50 reported for COc1cc(NC(=O)[C@H]2CC[C@@H](N3Cc4c(Br)cccc4C3=O)CC2)ccc1C
100 to 1000 nM

Tell me IC50 reported for COc1cc(NC(=O)[C@H]2CC[C@@H](N3Cc4c(C)ccc(CNC(C)=O)c4NC3=O)CC2)ccc1C
< 100 nM

Tell me IC50 reported for COc1c(F)cc(NC(=O)[C@H]2CC[C@@H](N3Cc4c(C)cccc4C3=O)CC2)cc1F
100 to 1000 nM

Tell me IC50 reported for COc1cc(NC(=O)[C@@H]2CC[C@@H](N3Cc4c(C)cc(Br)cc4NC3=O)C2)ccc1C
1000 to 10000 nM

* * *

molecular target: hOGG1 (Homo sapiens, UniProt O15527); experiment: Biochemical fluorescence assay to measure enzymatic activity of hOGG1 (OGG1/APEX IC50); set-up: Protein His-hOGG1 (12-323) was prepared; His (N); host or cells: E. coli; details: 1 nM OGG1+2 nM APEX+6 nM dsDNA (8-oxo-dG substrate); pH 7.5; RT 40 min; read-out: OGG1/APEX IC50
Assign IC50 to each entry below.

Tell me IC50 reported for COc1cc(NC(=O)[C@H]2CC[C@@H](N3Cc4c(C)ccnc4NC3=O)CC2)ccc1C
< 100 nM

Tell me IC50 reported for COc1ccc(NC(=O)[C@H]2CC[C@@H](N3Cc4c(C)cc(NCCN(C)C)cc4C3=O)CC2)cc1C#N
< 100 nM

Tell me IC50 reported for COc1cc(NC(=O)[C@H]2CC[C@@H](N3Cc4c(C)cc(NCC5CCCN5)cc4C3=O)CC2)ccc1C (stereo partly drawn)
< 100 nM

Tell me IC50 reported for Cc1cccc2c1CN([C@H]1CC[C@@H](C(=O)Nc3ccc(=O)n(C)c3)CC1)C2=O
> 10000 nM

Tell me IC50 reported for COc1ccc(NC(=O)[C@H]2CC[C@@H](N3Cc4c(C)cccc4NC3=O)CC2)cc1C#N
< 100 nM

Tell me IC50 reported for COc1cc(NC(=O)[C@H]2CC[C@@H](N3Cc4c(C)cc(CO)cc4C3=O)CC2)ccc1C
100 to 1000 nM

Tell me IC50 reported for COc1cc(NC(=O)[C@H]2CC[C@@H](N3Cc4c(ccc(Br)c4C)NC3=O)CC2)ccc1C
1000 to 10000 nM

Tell me IC50 reported for COc1cc(NC(=O)[C@H]2CC[C@@H](N3Cc4c(C)cc(OCCN5CC(F)(F)C5)cc4C3=O)CC2)ccc1C
100 to 1000 nM

Tell me IC50 reported for COc1cc(NC(=O)[C@H]2CC[C@@H](N3Cc4c(C)cc(C#N)cc4NC3=O)CC2)ccc1C
< 100 nM

Tell me IC50 reported for COc1cc(NC(=O)[C@H]2CC[C@@H](N3Cc4c(C)cccc4OC3=O)CC2)ccc1C
100 to 1000 nM

Tell me IC50 reported for COc1ccc(NC(=O)[C@]2(C)CC[C@H](N3Cc4c(C)ccc(OC)c4NC3=O)CC2)cc1C#N (single isomer, unassigned)
< 100 nM

Tell me IC50 reported for COc1cc(NC(=O)[C@H]2CC[C@@H](N3Cc4c(Br)cccc4NC3=O)CC2)ccc1C
100 to 1000 nM

Tell me IC50 reported for COc1cc(NC(=O)[C@H]2CC[C@@H](N3Cc4c(Br)cc(NC(=O)Cc5c[nH]cn5)cc4C3=O)CC2)ccc1C
100 to 1000 nM

Tell me IC50 reported for COc1cc(NC(=O)[C@H]2CC[C@@H](N3Cc4c(Br)cc(NCCN5CCOCC5)cc4C3=O)CC2)ccc1C
100 to 1000 nM

Tell me IC50 reported for COc1cc(NC(=O)[C@H]2CC[C@@H](N3Cc4c(Br)cc(NC(=O)CN5CCC5)cc4C3=O)CC2)ccc1C
100 to 1000 nM

* * *

molecular target: UniProt O15527; assay: Biochemical fluorescence assay to measure enzymatic activity of hOGG1 (OGG1/APEX IC50); parameters: Protein His-hOGG1 (12-323) was prepared; His (N); host or cells: E. coli; conditions: 1 nM OGG1+2 nM APEX+6 nM dsDNA (8-oxo-dG substrate); pH 7.5; RT 40 min; read-out: OGG1/APEX IC50
Assign IC50 to each entry below.

Report IC50 from UniProt O15527 testing of Cc1ccc(NC(=O)[C@H]2CC[C@@H](N3Cc4c(C)cccc4C3=O)CC2)cc1O
1000 to 10000 nM

Report IC50 from UniProt O15527 testing of COc1cc(NC(=O)[C@H]2CC[C@@H](N3Cc4c(ccc(OCCN5CCOCC5)c4C)NC3=O)CC2)ccc1C
1000 to 10000 nM

Report IC50 from UniProt O15527 testing of Cc1cccc2c1CN([C@H]1CC[C@@H](C(=O)Nc3ccc4oncc4c3)CC1)C2=O
100 to 1000 nM

Report IC50 from UniProt O15527 testing of Cc1ccc(NC(=O)[C@H]2CC[C@@H](N3Cc4c(C)cccc4C3=O)CC2)c(O)c1
1000 to 10000 nM

Report IC50 from UniProt O15527 testing of COc1cc(NC(=O)[C@H]2CC[C@@H](N3Cc4c(C)cc(N5CC6(COC6)C5)cc4NC3=O)CC2)ccc1C
< 100 nM

Report IC50 from UniProt O15527 testing of COc1ccc(NC(=O)[C@H]2CC[C@@H](N3Cc4c(C)cccc4NC3=O)CC2)cc1Cl
< 100 nM

Report IC50 from UniProt O15527 testing of COc1cc(NC(=O)[C@H]2CC[C@@H](N3Cc4c(C)ccc(N5CC6(COC6)C5)c4NC3=O)CC2)ccc1C
100 to 1000 nM

* * *

biological target: hOGG1 (Homo sapiens); test: Biochemical fluorescence assay to measure enzymatic activity of hOGG1 (OGG1/APEX IC50); design: Protein His-hOGG1 (12-323) was prepared; His (N); host or cells: E. coli; conditions: 1 nM OGG1+2 nM APEX+6 nM dsDNA (8-oxo-dG substrate); pH 7.5; RT 40 min; read-out: OGG1/APEX IC50
pIC50: −log10 of the molar value.
observation type: pIC50

Tell me pIC50 reported for COc1cc(NC(=O)[C@H]2CC[C@@H](N3Cc4c(C)ccc(OCC5(C)COC5)c4NC3=O)CC2)ccc1C [Example 23]
6.00 to 7.00

Tell me pIC50 reported for Cc1cc(NCCN(C)C)cc2c1CN([C@H]1CC[C@@H](C(=O)Nc3cc4ccccc4[nH]3)CC1)C2=O [Example 271]
> 7.00

Tell me pIC50 reported for COc1ccc(NC(=O)[C@H]2CC[C@@H](N3Cc4c(C)cc(NCCN(C)C)cc4NC3=O)CC2)cc1C [Example 97]
> 7.00

Tell me pIC50 reported for COc1cc(NC(=O)[C@H]2CC[C@@H](N3Cc4c(C)ccc(C#N)c4C3=O)CC2)ccc1C [Example 143]
> 7.00

* * *

target: hOGG1 (Homo sapiens, UniProt O15527); test: Biochemical fluorescence assay to measure enzymatic activity of hOGG1 (OGG1/APEX IC50); parameters: Protein His-hOGG1 (12-323) was prepared; His (N); host or cells: E. coli; details: 1 nM OGG1+2 nM APEX+6 nM dsDNA (8-oxo-dG substrate); pH 7.5; RT 40 min; read-out: OGG1/APEX IC50
observation type: IC50

Tell me IC50 reported for COc1ccc(NC(=O)[C@]2(C)CC[C@H](N3Cc4c(C)cccc4NC3=O)CC2)cc1Cl (single isomer, unassigned) [Example 103]
< 100 nM

Tell me IC50 reported for COc1ccc(NC(=O)[C@H]2CC[C@@H](N3Cc4c(C)ccnc4NC3=O)CC2)cc1Cl [Example 14]
100 to 1000 nM

Tell me IC50 reported for COc1cc(NC(=O)[C@H]2CC[C@@H](N3Cc4c(C)cc(C=O)cc4NC3=O)CC2)ccc1C [Example 78]
< 100 nM

Tell me IC50 reported for COc1cc(NC(=O)[C@H]2CC[C@@H](N3Cc4c(CN)ccc(Cl)c4C3=O)CC2)ccc1C [Example 133]
> 10000 nM

* * *

target: UniProt O15527; test: Surface Plasma Resonance with hOGG1 to measure compound affinity (OGG1 SPR Kd); conditions: Biacore T-200, immobilized his-tagged OGG1; pH 7.4; 2% DMSO; single-cycle kinetics
pKd: −log10 of the molar value.
Assign pKd to each entry below.

Tell me pKd reported for COc1ccc(NC(=O)[C@H]2CC[C@@H](N3Cc4c(C)cccc4C3=O)CC2)cc1C#N [Example 239]
7.00 to 8.00

Tell me pKd reported for COc1ccc(NC(=O)[C@]2(C)CC[C@H](N3Cc4c(C)ccc(OC)c4NC3=O)CC2)cc1C#N (single isomer, unassigned) [Example 9]
≥ 8.00

Tell me pKd reported for COc1ccc(NC(=O)[C@H]2CC[C@@H](N3Cc4c(C)cc(NCCN(C)C)cc4NC3=O)CC2)cc1C#N [Example 99]
7.00 to 8.00

Tell me pKd reported for COc1cc(NC(=O)[C@H]2CC[C@@H](N3Cc4c(C)ccc(OC)c4NC3=O)CC2)ccc1C [Example 47]
7.00 to 8.00

Tell me pKd reported for COc1ccc(NC(=O)[C@]2(C)CC[C@H](N3Cc4c(C)ccc(OC)c4NC3=O)CC2)cc1Cl (single isomer, unassigned) [Example 7]
7.00 to 8.00

Tell me pKd reported for COc1cc(NC(=O)[C@]2(C)CC[C@@H](N3Cc4c(C)ccc(OC)c4NC3=O)CC2)ccc1C [Example 12]
< 6.00

Tell me pKd reported for COc1ccc(NC(=O)[C@H]2CC[C@@H](N3Cc4c(C)cc(NCCN(C)C)cc4C3=O)CC2)cc1C [Example 256]
≥ 8.00

Tell me pKd reported for COc1ccc(NC(=O)[C@H]2CC[C@@H](N3Cc4c(C)cc(NCCN(C)C)cc4C3=O)CC2)cc1Cl [Example 260]
7.00 to 8.00

Tell me pKd reported for COc1cc(NC(=O)[C@]2(C)CC[C@H](N3Cc4c(C)ccc(OC)c4NC3=O)CC2)ccc1C [Example 13]
7.00 to 8.00

Tell me pKd reported for COc1ccc(NC(=O)[C@H]2CC[C@@H](N3Cc4c(C)cc(NCCN(C)C)cc4NC3=O)CC2)cc1C [Example 97]
7.00 to 8.00

Tell me pKd reported for COc1cc(NC(=O)[C@H]2CC[C@@H](N3Cc4c(C)cc(N(C)C)cc4C3=O)CC2)ccc1C [Example 135]
7.00 to 8.00

Tell me pKd reported for COc1cc(NC(=O)[C@H]2CC[C@@H](N3Cc4c(C)cnc(CNC(C)=O)c4NC3=O)CC2)ccc1C [Example 19]
≥ 8.00

Tell me pKd reported for COc1ccc(NC(=O)[C@H]2CC[C@@H](N3Cc4c(C)cc(NCCN(C)C)cc4C3=O)CC2)cc1C#N [Example 259]
7.00 to 8.00

Tell me pKd reported for COc1ccc(NC(=O)[C@H]2CC[C@@H](N3Cc4c(C)ccc(OC)c4NC3=O)CC2)cc1C [Example 4]
7.00 to 8.00

Tell me pKd reported for Cc1cc(NCCN(C)C)cc2c1CN([C@H]1CC[C@@H](C(=O)Nc3cc4ccccc4[nH]3)CC1)C2=O [Example 271]
7.00 to 8.00
